molecular target: Human immunodeficiency virus type 1 protease (Human immunodeficiency virus 1, UniProt Q72874, N88D); assay: Inhibition of HIV1 protease N88D mutant using Abz-Thr-Ile-Nle-p-nitro-Phe-Gln-Arg-NH2 as substrate after 5 mins by spectrophotometry
Sequence (Q72874 entry or part of it N88D): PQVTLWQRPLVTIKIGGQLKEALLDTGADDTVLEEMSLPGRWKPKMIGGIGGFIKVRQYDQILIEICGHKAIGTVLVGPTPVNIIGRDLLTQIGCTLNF
measurement.name: Ki (nM)
Give bare numbers, in nM.

Q: I would be grateful if you could share the reported Ki for "COc1ccc(S(=O)(=O)N(C[C@H]2CCC(=O)N2)C[C@@H](O)[C@H](Cc2ccccc2)NC(=O)O[C@@H]2C[C@@H]3CCO[C@@H]3C2)cc1" .
Result: 0.92

###

target: Protease (Human immunodeficiency virus 1, UniProt Q9YQ12)
Sequence (Q9YQ12 whole entry): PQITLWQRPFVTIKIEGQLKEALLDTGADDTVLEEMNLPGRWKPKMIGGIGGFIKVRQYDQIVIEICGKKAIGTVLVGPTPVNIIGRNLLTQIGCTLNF
measurement.name: Ki (nM)
One number for each entry, in nM.

Q: I would be grateful if you could share the reported Ki for "COc1ccc(S(=O)(=O)N(C[C@H]2CCC(=O)N2)C[C@@H](O)[C@H](Cc2ccccc2)NC(=O)O[C@@H]2C[C@@H]3CCO[C@@H]3C2)cc1" .
Result: 0.44

###

target: Human immunodeficiency virus type 1 protease (Human immunodeficiency virus 1, UniProt Q72874, L76V); test: Inhibition of HIV1 protease L76V mutant using Abz-Thr-Ile-Nle-p-nitro-Phe-Gln-Arg-NH2 as substrate after 5 mins by spectrophotometry
measurement.name: pKi
Numbers only, as −log10 of the molar value.

Q: I would be grateful if you could share the reported pKi for "COc1ccc(S(=O)(=O)N(C[C@H]2CCC(=O)N2)C[C@@H](O)[C@H](Cc2ccccc2)NC(=O)O[C@@H]2C[C@@H]3CCO[C@@H]3C2)cc1" .
Result: 9.10

###

biological target: Human immunodeficiency virus type 1 protease (Human immunodeficiency virus 1, UniProt Q72874, I47V); assay: Inhibition of HIV1 protease I47V mutant using Abz-Thr-Ile-Nle-p-nitro-Phe-Gln-Arg-NH2 as substrate after 5 mins by spectrophotometry
measurement.name: pKi
Numbers only, as −log10 of the molar value.

Q: I would be grateful if you could share the reported pKi for "COc1ccc(S(=O)(=O)N(C[C@H]2CCC(=O)N2)C[C@@H](O)[C@H](Cc2ccccc2)NC(=O)O[C@@H]2C[C@@H]3CCO[C@@H]3C2)cc1" .
Result: 9.34
